meta.source: ChEMBL document CHEMBL3098030

# MEASUREMENT DESCRIPTION: Cytotoxicity against human CRL2813 cells after 5 days by SRB assay
# Assay type: functional, cell-based
# CONDITION: CRL2813, 120 h
MEASUREMENT TYPE: pIC50
pIC50 is a log-scale quantity: -log10 of the concentration expressed in molar.

Consider the following illustrative entries.
O=C(Nc1ccccc1)N[C@H]1CC[C@H](Oc2ccc(F)cc2)CC1 = 4.70
O=C(Nc1cccc(C(F)(F)F)c1)N[C@H]1CC[C@H](Oc2ccc(C(F)(F)F)cc2)CC1 = 6.34
COC(=O)c1cccc(NC(=O)N[C@H]2CC[C@H](Oc3ccc(F)cc3)CC2)c1 = 5.04

Task: Note down pIC50 recorded for O=C(Nc1ccc(C(=O)O)cc1)N[C@H]1CC[C@H](Oc2ccc(F)cc2)CC1
Result: 4.94

Task: Item COC(=O)c1ccccc1NC(=O)N[C@H]1CC[C@@H](Oc2ccc(F)cc2)CC1 : provide pIC50
Result: 4.84

Task: Identify the reported pIC50 for the following entry. CSc1cccc(NC(=O)N[C@H]2CC[C@H](Oc3ccc(F)cc3)CC2)c1
Result: 4.95

----------
Listed next: entries and their corresponding IC50.
# MEASUREMENT DESCRIPTION: Cytotoxicity against human CRL2813 cells after 5 days by SRB assay
# Format: functional, cell-based
# CONDITION: CRL2813, 120 h
Write the number in µM without appending the unit.

O=C(Nc1ccccc1[N+](=O)[O-])N[C@H]1CC[C@H](Oc2ccc(F)cc2)CC1 = 3.5

Task: # return recorded IC50 for input O=C(Nc1ccccc1Cl)N[C@H]1CC[C@H](Oc2ccc(F)cc2)CC1
Result: 9.1

Task: Note down IC50 recorded for O=C(Nc1cccc(C(F)(F)F)c1)N[C@H]1CC[C@H](Oc2ccc(OC(F)(F)F)cc2)CC1
Result: 0.69

Task: Write down IC50 measured for item O=C(Nc1ccccc1Br)N[C@H]1CC[C@H](Oc2ccc(F)cc2)CC1
Result: 7.7

Task: Give me measured IC50, please, for this molecule: O=C(Nc1ccc(I)cc1)N[C@H]1CC[C@H](Oc2ccc(F)cc2)CC1
Result: 10.2

----------
# TARGET OR SYSTEM: UniProt:Q9BQI3
# MEASUREMENT DESCRIPTION: Activation of HRI in human CRL-2813-pBISA-DL(ATF-4) reporter cells assessed as reduction of ternary complex at 30 uM by dual-luciferase reporter gene assay relative to control
We label by threshold. Values of Ratio strictly beneath 4 are True. Values of 4 and up are False.

These solved cases illustrate the format of a correct answer.
Cc1ccccc1NC(=O)N[C@H]1CC[C@H](Oc2ccc(F)cc2)CC1 = True
O=C(Nc1cccc(Cl)c1)N[C@H]1CC[C@H](Oc2ccc(F)cc2)CC1 = False

Task: Please state whether Ratio is below 4 for O=C(Nc1cccc(F)c1)N[C@H]1CC[C@H](Oc2ccc(F)cc2)CC1
Result: False

Task: Problem: For the compound O=C(Nc1cccc(C(F)(F)F)c1)N[C@H]1CC[C@H](OCc2ccc(F)cc2)CC1 , is Ratio under 4?
Result: False

Task: Consider COc1cccc(NC(=O)N[C@H]2CC[C@H](Oc3ccc(F)cc3)CC2)c1 . Does its Ratio lie strictly below 4?
Result: True

----------
# TARGET OR SYSTEM: Eukaryotic translation initiation factor 2-alpha kinase 1 (Homo sapiens) (UniProt Q9BQI3)
# Sequence (Q9BQI3 whole entry): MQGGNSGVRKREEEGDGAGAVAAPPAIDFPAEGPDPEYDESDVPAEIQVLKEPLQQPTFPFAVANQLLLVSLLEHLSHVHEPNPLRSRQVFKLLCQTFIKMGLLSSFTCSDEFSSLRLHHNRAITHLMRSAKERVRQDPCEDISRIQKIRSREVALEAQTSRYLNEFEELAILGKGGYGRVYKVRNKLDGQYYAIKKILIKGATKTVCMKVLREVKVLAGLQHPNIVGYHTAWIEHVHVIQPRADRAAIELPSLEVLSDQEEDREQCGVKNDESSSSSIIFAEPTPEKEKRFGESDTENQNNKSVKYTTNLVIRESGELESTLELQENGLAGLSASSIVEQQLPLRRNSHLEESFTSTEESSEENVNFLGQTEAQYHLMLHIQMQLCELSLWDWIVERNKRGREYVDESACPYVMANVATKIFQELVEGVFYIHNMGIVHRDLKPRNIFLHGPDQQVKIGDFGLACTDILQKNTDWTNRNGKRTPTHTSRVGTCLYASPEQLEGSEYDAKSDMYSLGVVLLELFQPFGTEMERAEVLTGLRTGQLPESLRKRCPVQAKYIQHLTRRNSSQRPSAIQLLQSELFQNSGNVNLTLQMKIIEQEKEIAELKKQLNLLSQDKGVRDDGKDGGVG
# MEASUREMENT DESCRIPTION: Activation of HRI in human CRL-2813-pBISA-DL(ATF-4) reporter cells assessed as reduction of ternary complex at 30 uM by dual-luciferase reporter gene assay relative to control
Item-by-item account of Ratio
Format: numeric value only, no unit, no commentary.

COC(=O)c1cccc(NC(=O)N[C@H]2CC[C@H](Oc3ccc(F)cc3)CC2)c1 = 6.83
O=C(Nc1cccc(C(F)(F)F)c1)N[C@H]1CC[C@H](Oc2ccccc2F)CC1 = 7.98
O=C(Nc1ccccc1[N+](=O)[O-])N[C@H]1CC[C@H](Oc2ccc(F)cc2)CC1 = 2.23

Task: Complete the entry with Ratio for CSc1ccccc1NC(=O)N[C@H]1CC[C@H](Oc2ccc(F)cc2)CC1
Result: 0.92

Task: Hello, please tell me recorded Ratio for this one: O=C(Nc1ccc([N+](=O)[O-])cc1)N[C@H]1CC[C@H](Oc2ccc(F)cc2)CC1
Result: 9

Task: Output measured Ratio for this item: O=C(Nc1cccc(C(F)(F)F)c1)N[C@H]1CC[C@H](O)CC1
Result: 0.89

Task: Give Ratio for COC(=O)c1ccccc1NC(=O)N[C@H]1CC[C@@H](Oc2ccc(F)cc2)CC1
Result: 3.79

Task: Quote Ratio reported for O=C(Nc1cccc(Br)c1)N[C@H]1CC[C@H](Oc2ccc(F)cc2)CC1 please.
Result: 9.52

Task: # return recorded Ratio for input O=C(Nc1ccccc1C(F)(F)F)N[C@H]1CC[C@H](Oc2ccc(F)cc2)CC1
Result: 1.56

Task: Input O=C(Nc1ccc(I)cc1)N[C@H]1CC[C@H](Oc2ccc(F)cc2)CC1 , output reported Ratio.
Result: 3.77
